Where do the numbers come from? From ChEMBL document CHEMBL1201862.

Examples of compounds with documented GI50 follow.
System: SN12C
Experiment: NCI tumour cell line growth inhibition, 48 h
Active and inactive are the calls of the source. No stated cut-off is given here; in the data, active = GI50 up to about 1.1 µM and inactive = higher.
OUTCOME_MEASURE: GI50

>  <COMPOUND>
O=C(CC(=O)c1cccc([N+](=O)[O-])c1)C(=O)Nc1nc([N+](=O)[O-])cs1

>  <RECORDED_MEASUREMENT>
> 100 µM (inactive)

$$$$
>  <COMPOUND>
CC(C)(C)OC(=O)NCCCCC(N)NC(=O)c1ccccc1 (configuration not stated)

>  <RECORDED_MEASUREMENT>
> 100 µM (inactive)

$$$$
>  <COMPOUND>
COc1cc2c(cc1OCCCCOc1cc3nc(C)nc(Cl)c3cc1OC)N=C[C@@H]1CCCN1C2=O

>  <RECORDED_MEASUREMENT>
1.93 µM (inactive)

$$$$
>  <COMPOUND>
CCOP(=O)(O)C(C)(C)NC

>  <RECORDED_MEASUREMENT>
> 100 µM (inactive)

$$$$
>  <COMPOUND>
Nc1nc2c(c(-c3ccccc3Cl)n1)COC/C2=C\c1ccccc1Cl

>  <RECORDED_MEASUREMENT>
16.6 µM (inactive)

$$$$
>  <COMPOUND>
O=C1NC(=O)C(=O)C(c2nc3ccccc3s2)C1=O

>  <RECORDED_MEASUREMENT>
> 100 µM (inactive)

$$$$
>  <COMPOUND>
O=C/C(=C(/Br)I)c1ccccc1

>  <RECORDED_MEASUREMENT>
1.9 µM (inactive)

$$$$
